# credit: patent US8802864B2

- system_tested: FAS (Homo sapiens (Human))
- method_notes: biochemical
measurement_kind: pIC50
One number for each entry, as −log10 of the molar value.

Give its pIC50 value. Item: N#Cc1ccc(-c2ccc(-n3c(C[C@@H]4CCN(C(=O)C5CC5)C4)n[nH]c3=O)cc2)cc1
6.90

* * *

- system_tested: FAS (Homo sapiens (Human), UniProt P49327)
- Sequence (P49327 whole entry): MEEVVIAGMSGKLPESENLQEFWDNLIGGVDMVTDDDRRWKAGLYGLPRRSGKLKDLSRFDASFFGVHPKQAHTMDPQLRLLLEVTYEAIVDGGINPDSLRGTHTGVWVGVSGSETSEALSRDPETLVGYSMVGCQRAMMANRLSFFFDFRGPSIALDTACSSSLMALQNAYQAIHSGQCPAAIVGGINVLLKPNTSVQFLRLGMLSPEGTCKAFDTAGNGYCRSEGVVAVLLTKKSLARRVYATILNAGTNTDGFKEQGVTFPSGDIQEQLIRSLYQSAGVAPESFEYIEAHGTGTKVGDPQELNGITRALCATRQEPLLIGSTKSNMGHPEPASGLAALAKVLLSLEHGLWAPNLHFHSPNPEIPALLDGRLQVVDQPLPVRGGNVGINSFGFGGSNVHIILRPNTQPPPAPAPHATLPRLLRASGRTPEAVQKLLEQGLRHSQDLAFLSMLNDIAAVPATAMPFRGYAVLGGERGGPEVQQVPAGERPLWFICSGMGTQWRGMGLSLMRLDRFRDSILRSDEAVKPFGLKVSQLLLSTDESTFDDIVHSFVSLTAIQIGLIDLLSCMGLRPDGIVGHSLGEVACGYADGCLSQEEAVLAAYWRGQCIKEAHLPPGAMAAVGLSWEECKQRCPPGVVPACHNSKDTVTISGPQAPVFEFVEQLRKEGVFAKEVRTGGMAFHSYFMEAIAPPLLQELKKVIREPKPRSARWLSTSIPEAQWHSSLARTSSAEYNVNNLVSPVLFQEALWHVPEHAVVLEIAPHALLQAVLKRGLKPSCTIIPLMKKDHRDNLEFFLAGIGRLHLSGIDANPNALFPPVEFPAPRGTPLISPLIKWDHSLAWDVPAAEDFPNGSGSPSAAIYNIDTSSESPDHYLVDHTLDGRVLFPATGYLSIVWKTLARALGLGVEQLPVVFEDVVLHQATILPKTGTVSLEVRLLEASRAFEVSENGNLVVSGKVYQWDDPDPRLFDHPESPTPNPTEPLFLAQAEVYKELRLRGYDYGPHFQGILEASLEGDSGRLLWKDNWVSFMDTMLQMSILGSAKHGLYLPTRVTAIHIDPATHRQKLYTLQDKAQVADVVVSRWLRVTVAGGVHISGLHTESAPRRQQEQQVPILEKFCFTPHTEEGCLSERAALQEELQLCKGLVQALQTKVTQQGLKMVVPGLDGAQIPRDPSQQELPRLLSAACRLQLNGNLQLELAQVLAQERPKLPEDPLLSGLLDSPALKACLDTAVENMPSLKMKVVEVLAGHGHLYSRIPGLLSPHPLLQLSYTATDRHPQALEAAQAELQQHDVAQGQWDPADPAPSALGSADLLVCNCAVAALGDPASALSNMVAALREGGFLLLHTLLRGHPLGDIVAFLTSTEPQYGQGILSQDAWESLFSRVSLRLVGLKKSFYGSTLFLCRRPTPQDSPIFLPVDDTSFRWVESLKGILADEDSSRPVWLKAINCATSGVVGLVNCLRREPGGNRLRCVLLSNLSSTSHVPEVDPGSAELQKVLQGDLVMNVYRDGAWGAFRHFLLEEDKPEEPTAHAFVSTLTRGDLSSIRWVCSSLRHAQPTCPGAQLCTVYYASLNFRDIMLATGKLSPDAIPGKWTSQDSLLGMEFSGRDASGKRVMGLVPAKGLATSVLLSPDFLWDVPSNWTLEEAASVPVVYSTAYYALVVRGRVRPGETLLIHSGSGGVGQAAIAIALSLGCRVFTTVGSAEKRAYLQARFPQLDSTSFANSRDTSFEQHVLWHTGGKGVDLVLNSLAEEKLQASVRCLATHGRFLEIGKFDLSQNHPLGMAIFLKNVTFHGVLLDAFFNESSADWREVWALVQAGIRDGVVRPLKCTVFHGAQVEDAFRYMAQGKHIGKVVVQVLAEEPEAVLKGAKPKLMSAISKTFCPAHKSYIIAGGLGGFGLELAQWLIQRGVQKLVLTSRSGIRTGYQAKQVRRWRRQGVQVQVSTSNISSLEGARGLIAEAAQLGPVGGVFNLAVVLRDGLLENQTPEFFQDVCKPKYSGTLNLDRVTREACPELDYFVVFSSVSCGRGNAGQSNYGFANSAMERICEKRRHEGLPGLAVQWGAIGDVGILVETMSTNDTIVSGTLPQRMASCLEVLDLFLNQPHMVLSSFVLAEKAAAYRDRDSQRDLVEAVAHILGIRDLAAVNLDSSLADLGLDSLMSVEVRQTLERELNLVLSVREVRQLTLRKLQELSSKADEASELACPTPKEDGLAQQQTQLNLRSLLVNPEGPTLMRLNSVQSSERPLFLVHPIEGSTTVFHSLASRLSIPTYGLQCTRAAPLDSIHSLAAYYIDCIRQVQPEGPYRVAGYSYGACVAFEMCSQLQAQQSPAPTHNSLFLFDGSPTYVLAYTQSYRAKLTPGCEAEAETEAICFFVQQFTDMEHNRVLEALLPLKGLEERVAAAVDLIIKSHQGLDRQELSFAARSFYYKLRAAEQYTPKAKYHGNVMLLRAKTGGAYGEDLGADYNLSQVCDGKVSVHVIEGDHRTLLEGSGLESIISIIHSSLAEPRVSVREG
- cond: inhibition of FAS; tested by one of the two FAS assays; value from at least one experiment or the average of multiple experiments
measurement_kind: pIC50
Numbers only, as −log10 of the molar value.

Past entries and their recorded results:
[[record]]
query_smiles = "O=C(C1CC1)N1CC[C@@H](Cc2n[nH]c(=O)n2-c2ccc(-c3ccc4ccoc4c3)cc2)C1"
reported_value = 8.22

[[record]]
query_smiles = "Cn1nc(C[C@@H]2CCN(C(=O)C3CC3)C2)n(-c2ccc(-c3ccc4occc4c3)cc2)c1=O"
reported_value = 7.70

[[record]]
query_smiles = "CN(C)Cc1ccc(-c2ccc(-n3c(C[C@@H]4CCN(C(=O)C5CC5)C4)n[nH]c3=O)cc2)cc1"
reported_value = 6.70

[[record]]
query_smiles = "O=C(C1CC1)N1CC(Cc2n[nH]c(=O)n2-c2ccc(-c3ccc4cc[nH]c4c3)cc2)C1"
reported_value = 7.80

[[record]]
query_smiles = "COc1ccc(-c2ccc(-n3c(C[C@@H]4CCN(C(=O)C5CC5)C4)n[nH]c3=O)c(F)c2)cc1"
reported_value = 7.40


List the reported pIC50 of each compound below.
1. Cc1cc(-c2ccc3cc[nH]c3c2)ccc1-n1c(C[C@@H]2CCN(C(=O)C3CC3)C2)n[nH]c1=O
2. O=C(C1CC1)N1CC[C@@H](Cc2n[nH]c(=O)n2-c2ccc(-c3ccc4cnccc4c3)cc2F)C1

8.30
8.52
